molecular target: AGO2 F182del (Homo sapiens, UniProt Q9UKV8 1-859, S387D;S824A;S828D;S831D;S834A;del182-182); experiment: RNA Bind-n-Seq (nitrocellulose filter binding and sequencing); miR-122 guide loaded in AGO2; 60 min incubation; 30 mM Tris pH 8.0, 100 mM potassium acetate, 2 mM magnesium acetate, 0.5 mM TCEP, 0.005% NP-40, 0.01 mg/ml yeast tRNA; 3 nM AGO2-miR-122, 100 nM RNA library; 60; high values mean tight binding; conditions: protein: recombinant; tags: His6 (N-terminal, pFastBac HTA)
Sequence (Q9UKV8 other isoform, or with tags, fused parts or gaps S387D;S824A;S828D;S831D;S834A;del182-182): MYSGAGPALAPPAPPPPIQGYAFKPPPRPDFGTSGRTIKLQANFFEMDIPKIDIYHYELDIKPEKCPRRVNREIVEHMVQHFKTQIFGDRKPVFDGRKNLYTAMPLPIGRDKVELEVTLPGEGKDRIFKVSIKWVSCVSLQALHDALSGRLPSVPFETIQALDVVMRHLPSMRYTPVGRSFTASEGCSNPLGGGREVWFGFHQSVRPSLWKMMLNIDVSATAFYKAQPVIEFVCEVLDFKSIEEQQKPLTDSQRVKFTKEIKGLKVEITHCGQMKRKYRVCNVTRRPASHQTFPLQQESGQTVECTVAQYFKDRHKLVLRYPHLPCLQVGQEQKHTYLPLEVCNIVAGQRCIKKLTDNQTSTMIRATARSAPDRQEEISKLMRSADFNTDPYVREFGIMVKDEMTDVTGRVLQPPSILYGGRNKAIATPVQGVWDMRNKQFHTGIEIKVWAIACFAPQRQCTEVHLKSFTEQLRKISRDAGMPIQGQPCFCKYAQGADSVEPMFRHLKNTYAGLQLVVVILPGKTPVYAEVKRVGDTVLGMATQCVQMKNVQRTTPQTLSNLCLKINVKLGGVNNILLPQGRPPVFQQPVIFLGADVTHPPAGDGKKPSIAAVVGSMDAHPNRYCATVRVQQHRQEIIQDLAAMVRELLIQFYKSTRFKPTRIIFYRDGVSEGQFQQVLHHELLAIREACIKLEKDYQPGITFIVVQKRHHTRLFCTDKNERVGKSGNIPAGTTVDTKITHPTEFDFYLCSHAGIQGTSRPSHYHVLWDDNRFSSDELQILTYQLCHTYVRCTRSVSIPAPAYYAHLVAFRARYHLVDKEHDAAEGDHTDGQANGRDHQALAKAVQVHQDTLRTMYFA
OBSERVABLE: binding signal

Guide cases for binding signal, answers given:
Per the records, this binder ( ACGCCTTA (ssRNA, constant regions annealed to DNA blockers; guide miR-122 5' phosphate) RNA 1: GAGUUCUACAGUCCGACGAUCCCAACACGCCUUACACCUGGAAUUCUCGGGUGCCAA RNA 2: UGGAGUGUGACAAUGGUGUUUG DNA 1: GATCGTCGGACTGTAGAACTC DNA 2: TTGGCACCCGAGAATTCCA ) has binding signal equal to 0.246 fold enrichment over input

Input ACGCTTCA (ssRNA, constant regions annealed to DNA blockers; guide miR-122 5' phosphate) RNA 1: GAGUUCUACAGUCCGACGAUCCCAACACGCUUCACACCUGGAAUUCUCGGGUGCCAA RNA 2: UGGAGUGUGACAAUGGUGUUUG DNA 1: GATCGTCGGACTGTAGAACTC DNA 2: TTGGCACCCGAGAATTCCA . Output binding signal: 0.944 fold enrichment over input

Record ATGCTCCA (ssRNA, constant regions annealed to DNA blockers; guide miR-122 5' phosphate) RNA 1: GAGUUCUACAGUCCGACGAUCCCAACAUGCUCCACACCUGGAAUUCUCGGGUGCCAA RNA 2: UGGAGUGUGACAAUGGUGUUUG DNA 1: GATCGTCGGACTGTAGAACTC DNA 2: TTGGCACCCGAGAATTCCA . Reported binding signal: 2.78 fold enrichment over input

// recorded binding signal for GCATCTCA (ssRNA, constant regions annealed to DNA blockers; guide miR-122 5' phosphate) RNA 1: GAGUUCUACAGUCCGACGAUCCCAACGCAUCUCACACCUGGAAUUCUCGGGUGCCAA RNA 2: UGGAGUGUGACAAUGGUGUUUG DNA 1: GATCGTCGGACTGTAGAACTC DNA 2: TTGGCACCCGAGAATTCCA : 0.86 fold enrichment over input

Sure, the documented binding signal for ACATCTCA (ssRNA, constant regions annealed to DNA blockers; guide miR-122 5' phosphate) RNA 1: GAGUUCUACAGUCCGACGAUCCCAACACAUCUCACACCUGGAAUUCUCGGGUGCCAA RNA 2: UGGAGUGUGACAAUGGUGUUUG DNA 1: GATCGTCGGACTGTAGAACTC DNA 2: TTGGCACCCGAGAATTCCA is 2.74 fold enrichment over input

binder ACGTCCCA (ssRNA, constant regions annealed to DNA blockers; guide miR-122 5' phosphate) RNA 1: GAGUUCUACAGUCCGACGAUCCCAACACGUCCCACACCUGGAAUUCUCGGGUGCCAA RNA 2: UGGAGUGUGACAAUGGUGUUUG DNA 1: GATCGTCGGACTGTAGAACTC DNA 2: TTGGCACCCGAGAATTCCA , binding signal observed: 0.446 fold enrichment over input

binding signal for ACACTCCG (ssRNA, constant regions annealed to DNA blockers; guide miR-122 5' phosphate) RNA 1: GAGUUCUACAGUCCGACGAUCCCAACACACUCCGCACCUGGAAUUCUCGGGUGCCAA RNA 2: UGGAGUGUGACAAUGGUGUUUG DNA 1: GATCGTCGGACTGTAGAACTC DNA 2: TTGGCACCCGAGAATTCCA is 91 fold enrichment over input

As a next step, examine the binder that follows.
The measured binding signal associated with ACACCCTA (ssRNA, constant regions annealed to DNA blockers; guide miR-122 5' phosphate) RNA 1: GAGUUCUACAGUCCGACGAUCCCAACACACCCUACACCUGGAAUUCUCGGGUGCCAA RNA 2: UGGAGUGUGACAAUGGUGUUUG DNA 1: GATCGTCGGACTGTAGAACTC DNA 2: TTGGCACCCGAGAATTCCA reads 0.799 fold enrichment over input

Data provenance: paper PMC12529666
